Cited source: ChEMBL document CHEMBL4396888

- Measurement Description: Cmax in ICR mouse at 10 mg/kg, po administered via gavage by mass spectrometric analysis
- Type: ADME, organism-based
- Design: dose 10 mg/kg, route oral
- Assay Context: in vivo
Value Type: Cmax (ng/mL)
Write the number in ng/mL without appending the unit.

INPUT: Give its Cmax value. Item: CNC[C@@H](O)CN1CCc2c(cccc2OCc2ccc(-c3nccs3)cc2)C1
OUTPUT: 75.4

###

- Measured Target: Protein arginine N-methyltransferase 5 (Homo sapiens)
- Sequence (O14744 whole entry): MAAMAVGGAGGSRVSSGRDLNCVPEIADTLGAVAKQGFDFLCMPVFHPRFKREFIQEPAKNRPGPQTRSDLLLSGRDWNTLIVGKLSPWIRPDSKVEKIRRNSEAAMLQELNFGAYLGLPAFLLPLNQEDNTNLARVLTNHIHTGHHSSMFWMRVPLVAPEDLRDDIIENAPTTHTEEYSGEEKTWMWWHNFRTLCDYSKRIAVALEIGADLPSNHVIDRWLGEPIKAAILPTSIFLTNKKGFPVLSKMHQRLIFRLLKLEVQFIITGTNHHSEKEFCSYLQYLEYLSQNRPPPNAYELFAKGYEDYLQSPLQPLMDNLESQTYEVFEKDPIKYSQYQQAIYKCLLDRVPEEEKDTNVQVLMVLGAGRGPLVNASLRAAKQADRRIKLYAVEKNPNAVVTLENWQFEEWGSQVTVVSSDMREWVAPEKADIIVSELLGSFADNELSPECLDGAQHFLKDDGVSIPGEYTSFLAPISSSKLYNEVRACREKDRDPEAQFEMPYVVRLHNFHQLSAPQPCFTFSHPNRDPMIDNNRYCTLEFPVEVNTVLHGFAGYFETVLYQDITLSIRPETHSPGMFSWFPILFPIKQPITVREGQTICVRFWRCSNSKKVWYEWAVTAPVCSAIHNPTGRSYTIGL
Value Type: IC50

INPUT: What value of IC50 has been recorded for this entry: CNC[C@@H](O)CN1CCc2c(cccc2OCc2ccc(-c3nccs3)cc2)C1
OUTPUT: > 30 µM

###

- Measured Target: Protein arginine N-methyltransferase 6 (Homo sapiens)
- Sequence (Q96LA8 whole entry): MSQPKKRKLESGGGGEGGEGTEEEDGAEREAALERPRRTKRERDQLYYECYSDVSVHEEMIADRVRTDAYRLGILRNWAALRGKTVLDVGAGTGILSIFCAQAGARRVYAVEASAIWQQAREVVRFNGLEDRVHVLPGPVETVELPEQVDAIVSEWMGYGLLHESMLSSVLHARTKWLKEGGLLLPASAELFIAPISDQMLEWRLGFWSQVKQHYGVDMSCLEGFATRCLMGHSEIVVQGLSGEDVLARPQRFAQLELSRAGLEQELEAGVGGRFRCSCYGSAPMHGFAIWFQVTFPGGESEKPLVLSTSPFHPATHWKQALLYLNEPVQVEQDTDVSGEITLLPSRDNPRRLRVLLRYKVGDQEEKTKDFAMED
Value Type: pIC50
Scale explanation: pIC50 corresponds to minus log10 of a concentration expressed in moles per litre.

INPUT: Look up pIC50: CNC[C@@H](O)CN1CCc2c(cccc2OCc2ccc(-c3nccs3)cc2)C1
OUTPUT: 5.10

###

- Measurement Description: AUC (0 to infinity) in ICR mouse at 10 mg/kg, po administered via gavage by mass spectrometric analysis
- Assay type: ADME, organism-based
- Parameters: dose 10 mg/kg, time infinity, route oral
- Assay Context: in vivo
Value Type: AUC(0-inf) (ng·h/mL)
# value in ng·h/mL; strip the unit string

INPUT: If you can, please state the reported AUC(0-inf) value of CNC[C@@H](O)CN1CCc2c(cccc2OCc2ccc(-c3nccs3)cc2)C1 .
OUTPUT: 3030
